System: cyclooxygenase
Assay: ARBC whole cell cyclooxygenase assay (RBL-1 cells, PGF2α)
Format: cell-based, rat
Settings: RBL-1 intact cell cyclooxygenase, PGF2α by RIA, A23187 5 μM
Source text: ARBL/ARBC Whole Cell 5-Lipoxygenase and Cyclooxygenase Assays The rat basophilic leukemia cell line (RBL-1) was obtained from the American Type Culture Collection (Rockville, Md.). Radioimmuno assay (RIA) kits of LTB4 and PGF2α were obtained from Amersham (Arlington Heights, IL) and Seragen (Boston, Mass.) respectively. All tissue culture media were obtained from GIBCO (Grand Island, N.Y.). […]
pIC50: −log10 of the molar value.
QUANTITY: pIC50

Study these solved cases before continuing.
INSERT INTO measurements (compound, tested_target, val) VALUES
  ('COC(=O)Cn1nc(C=Cc2cc(OC)c(O)c(OC)c2)cc1C [Example 10H]', 'cyclooxygenase', '< 4.52'),
  ('COC(=O)Cn1nc(C=Cc2cc(C(C)(C)C)c(O)c(C(C)(C)C)c2)cc1C [Example 10G-1]', 'cyclooxygenase', '< 4.52'),
  ('COC(=O)Cn1nc(C)cc1C=Cc1ccc(O)c(OC)c1 [Example 10I]', 'cyclooxygenase', '< 4.60'),
  ('Cc1cc(C=Cc2cc(C(C)(C)C)c(O)c(C(C)(C)C)c2)n(CC(=O)O)n1 [Example 10P]', 'cyclooxygenase', '< 4.52'),
  ('COc1cc(C=Cc2cc(C)nn2CC(=O)O)cc(OC)c1O [Example 10M]', 'cyclooxygenase', '< 4.52');

Q: Find the recorded pIC50 belonging to COC(=O)Cn1nc(C)cc1C=Cc1cc(C(C)(C)C)c(O)c(C(C)(C)C)c1 [Example 10G-2] and report it.
Ans: < 4.52

Q: Find the recorded pIC50 belonging to `COC(=O)C(=Cc1cc(OC)c(O)c(OC)c1)c1cc(C)no1` and report it.
Ans: < 4.60

Q: Find the recorded pIC50 belonging to COc1cc(C=Cc2cc(C)n(CC(=O)O)n2)cc(OC)c1O [Example 10N] and report it.
Ans: < 4.52

Q: Find the recorded pIC50 belonging to Cc1cc(C=Cc2cc(C(C)(C)C)c(O)c(C(C)(C)C)c2)nn1CC(=O)O [Example 10Q] and report it.
Ans: < 4.52

* * *

Items are presented alongside their recorded pIC50.
System: cyclooxygenase
Assay: ARBC whole cell cyclooxygenase assay (RBL-1 cells, PGF2α)
Assay type: cell-based, rat
Conditions: RBL-1 intact cell cyclooxygenase, PGF2α by RIA, A23187 5 μM
Source text: ARBL/ARBC Whole Cell 5-Lipoxygenase and Cyclooxygenase Assays The rat basophilic leukemia cell line (RBL-1) was obtained from the American Type Culture Collection (Rockville, Md.). Radioimmuno assay (RIA) kits of LTB4 and PGF2α were obtained from Amersham (Arlington Heights, IL) and Seragen (Boston, Mass.) respectively. All tissue culture media were obtained from GIBCO (Grand Island, N.Y.). […]
pIC50: −log10 of the molar value.

INSERT INTO assay_data (molecule, tested_target, quantity, val) VALUES
  ('Cc1cc(C(=Cc2cc(C)c(O)c(C)c2)C(=O)O)on1 [Example 52]', 'cyclooxygenase', 'pIC50', '< 4.70');

Q: Find the recorded pIC50 belonging to CCOC(=O)Cn1nc(C)cc1/C=C/c1cc(OC)c(O)c(OC)c1 [Example 10D] and report it.
Ans: < 4.52

Q: Find the recorded pIC50 belonging to Cc1cc(C=Cc2cc(Cl)cc(Cl)c2O)on1 [Example 32J] and report it.
Ans: < 4.52
